In this section, each of the binders is paired with its reported pKd.
Biological target: Human CD3εδ-Fc (human) (UniProt P04234)
Sequence (chain, as listed by the source mutant, chain 1 of 2): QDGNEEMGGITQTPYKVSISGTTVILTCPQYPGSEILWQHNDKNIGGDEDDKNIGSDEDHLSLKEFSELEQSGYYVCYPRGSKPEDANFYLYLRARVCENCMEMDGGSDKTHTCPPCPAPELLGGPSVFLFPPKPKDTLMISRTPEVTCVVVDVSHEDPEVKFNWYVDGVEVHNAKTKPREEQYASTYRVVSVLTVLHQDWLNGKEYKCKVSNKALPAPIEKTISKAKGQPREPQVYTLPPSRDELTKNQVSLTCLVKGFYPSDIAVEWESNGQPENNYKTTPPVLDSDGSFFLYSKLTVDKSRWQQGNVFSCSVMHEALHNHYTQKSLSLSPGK
Sequence (P04234 22-105, stated change not applied, chain 2 of 2): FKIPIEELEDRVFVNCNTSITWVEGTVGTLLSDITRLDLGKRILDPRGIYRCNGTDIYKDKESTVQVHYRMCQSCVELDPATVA
Test: KD of scFv-Fc or IgG on human CD3εδ-Fc; instrument not given
pKd: −log10 of the molar value.
measurement label: pKd

• ADI-45960 (antibody, V domains shown, also called Ab23) VH: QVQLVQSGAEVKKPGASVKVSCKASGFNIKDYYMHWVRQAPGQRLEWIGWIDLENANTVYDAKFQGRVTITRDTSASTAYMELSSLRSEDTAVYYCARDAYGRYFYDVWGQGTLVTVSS VL: DIVMTQSPDSLAVSLGERATINCKSSQSLLNARTGKNYLAWYQQKPGQPPKLLIYWASTRESGVPDRFSGSGSGTDFTLTISSLQAEDAAVYYCAQSYFRRTFGGGTKVEIK = 9.85
• ADI-46366 (antibody, V domains shown, also called Ab50) VH: QVQLVQSGAEVKKPGASVKVSCKASGFNIKDYYMHWVRQAPGQRLEWIGWIDLENANTVYDAKFQGRVTITRDTSASTAYMELSSLRSEDTAVYYCARDAYGQYFYDVWGQGTLVTVSS VL: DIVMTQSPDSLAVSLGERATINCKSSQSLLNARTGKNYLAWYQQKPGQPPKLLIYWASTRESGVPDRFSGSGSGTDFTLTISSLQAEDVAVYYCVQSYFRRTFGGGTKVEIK = 9.03
• ADI-45984 (antibody, V domains shown, also called Ab21) VH: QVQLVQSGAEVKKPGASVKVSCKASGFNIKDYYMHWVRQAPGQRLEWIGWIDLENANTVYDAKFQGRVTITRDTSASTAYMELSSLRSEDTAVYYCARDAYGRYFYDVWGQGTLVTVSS VL: DIVMTQSPDSLAVSLGERATINCKSSQSLLNARTRKNYLAWYQQKPGQPPKLLIYWASTRESGVPDRFSGSGSGTDFTLTISSLQAEDVAVYYCVQSYFRRTFGGGTKVEIK = 10.02
• ADI-45977 (antibody, V domains shown, also called Ab14) VH: QVQLVQSGAEVKKPGASVKVSCKASGFNIKDYYMHWVRQAPGQRLEWIGWIDLENANTVYDAKLQGRVTITRDTSASTAYMELSSLGSEDTAVYYCARDAYGRYFYDVWGQGTLVTVSS VL: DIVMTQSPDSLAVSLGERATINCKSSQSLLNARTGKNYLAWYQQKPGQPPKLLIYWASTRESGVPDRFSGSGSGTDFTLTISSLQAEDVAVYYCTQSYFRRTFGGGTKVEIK = 10.04
• ADI-45970 (antibody, V domains shown, also called Ab6) VH: QVQLVQSGAEVKKPGASVKVSCKASGFNVKDYYMHWVRQAPGQRLEWIGWIDLENANTVYDAKFQGRVTITRDTSASTAYMELSSLRSEDTAVYYCARDAYGRYFYDVWGQGTLVTVSS VL: DIVMTQSPDSLAVSLGERATINCKSSQSLLNARTGKNYLAWYQQKPGQPPKLLIYWASTRESGVPDRFSGSGSGTDFTLTISSLQAEDVAVYYCKQSYFRRTFGGGTKVEIK = 9.82

Provenance of the data: patent US20260209352A1
